// provenance: the MegaScale stability set (Tsuboyama et al. 2023)

B1: HEEH_KT_rd6_3632 (parent)
chain: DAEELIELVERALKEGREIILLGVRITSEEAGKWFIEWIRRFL

variants of: B1; assay: folding stability dG (cDNA display proteolysis); higher = more stable; details: PBS, room temperature
Label 1.0 when folding stability dG >= 3 kcal/mol; otherwise 0.0.

Reference set, count: 8
mutation-name: E10W
class-assignment: 1.0
//
mutation-name: R11F
class-assignment: 1.0
//
mutation-name: L21D
class-assignment: 0.0
//
mutation-name: F35Q
class-assignment: 0.0
//
mutation-name: E4I
class-assignment: 1.0
//
mutation-name: R41S
class-assignment: 1.0
//
mutation-name: E7H
class-assignment: 1.0
//
mutation-name: L13A
class-assignment: 1.0

### Prompt Hello, I need to know if R17M has measured folding stability dG not below 3 kcal/mol. Thanks!
### Response 1.0

### Prompt Hello, I need to know if L13P has measured folding stability dG not below 3 kcal/mol. Thanks!
### Response 0.0
